Experiment: Volume of distribution at steady state in monkey at 1 mg/kg, iv
Type: ADME, organism-based, Macaca mulatta
Design: dose 1 mg/kg, route intravenous
Conditions: rhesus monkey, in vivo, read-out: Vss
experimental_endpoint: Vd (L/kg)

>>> recorded_value("CC(=O)Nc1nc2c(Oc3cc(N4CCN([C@H](C)c5ccc(F)cc5)CC4)ncn3)cccc2s1")
0.9

---

Experiment: Oral bioavailability in dog at 3 mg/kg
Type: ADME, organism-based, Canis lupus familiaris
Conditions: in vivo
experimental_endpoint: bioavailability (%)

>>> recorded_value("CC(=O)Nc1nc2c(Oc3cc(N4CCN([C@H](C)c5ccc(F)cc5)CC4)ncn3)cccc2s1")
83
